Attribution: PubChem BioAssay (Tox21)

protocol.summary: qHTS assay for identifying genotoxic compounds that show differential cytotoxicity against isogenic chicken DT40 cell lines with known DNA damage response pathways - Rev3 mutant cell line (AID 743014); note: nearly all actives have a fitted effect of over 55% in size
test.conditions: chicken DT40 Rev3-/- viability, CellTiter-Glo, 40 h; series mostly up to 68.4 µM
Inconclusive results are not listed. Active and inactive are the calls of the source. Calls come from the whole dose curve; as a rule, active = well fitted cell-killing curve with a large enough effect in the repeat runs; inconclusive = weak or mixed curves, or effect the other way; inactive = no such curve, though single readings can be large or run the other way.
Hi there, use one of these labels in your reply, thanks! 1.0 = active, 0.0 = inactive

Recorded results for 4 molecules are shown here.
Nc1cc(S(=O)(=O)O)ccc1S(=O)(=O)O : 0.0
CCCCCCCCC(=O)OCC : 0.0
O=C(O)c1c(Cl)ccc(Cl)c1Cl : 0.0
CCOC(=O)CCCCCCCCC(=O)OCC : 1.0

Q. What outcome does the record of this test show for "O=C(O)c1ccccc1C(=O)Nc1ccc(S(=O)(=O)Nc2nccs2)cc1" ?
A. 0.0

Q. What outcome does the record of this test show for "C=C(C)[C@@H]1CC[C@@H](C)C[C@@H]1O" ?
A. 0.0

====

protocol.summary: qHTS assay for identifying genotoxic compounds that show differential cytotoxicity against isogenic chicken DT40 cell lines with known DNA damage response pathways - Rev3 mutant cell line (AID 743014); note: nearly all actives have a fitted effect of over 55% in size
test.conditions: chicken DT40 Rev3-/- viability, CellTiter-Glo, 40 h; series mostly up to 68.4 µM
From the text: National Center for Advancing Translational Sciences [NCATS] NIH Chemical Genomics Center [NCGC] U.S. Environmental Protection Agency [EPA] National Institutes of Environmental Health Sciences [NIEHS] National Toxicology Program [NTP] U.S. Food and Drug Administration [FDA] DNA repair pathways play a critical role in cellular homeostasis by repairing DNA damage induced by endogenous processes and xenobiotics. […]
Inconclusive results are not listed. Activity calls are given as the source filed them. Calls come from the whole dose curve; as a rule, active = well fitted cell-killing curve with a large enough effect in the repeat runs; inconclusive = weak or mixed curves, or effect the other way; inactive = no such curve, though single readings can be large or run the other way.
Hi there, use one of these labels in your reply, thanks! active, inactive

Recorded results for 5 compounds are shown here.
NS(=O)(=O)c1ccccc1OC(F)(F)F : inactive
Oc1ccccc1Cc1ccccc1O : inactive
O=C1c2ccccc2-c2ccccc21 : inactive
CN[C@@H]1[C@H](O)[C@H](NC)[C@H]2O[C@@]3(O)C(=O)C[C@@H](C)O[C@H]3O[C@@H]2[C@H]1O : inactive
Cc1ccccc1C(=O)N1CC/C(=N\OS(=O)(=O)O)c2ccc(Cl)cc21 : inactive

Q. What outcome does the record of this test show for "CCOc1ccc(NC(=O)OC(C)C)cc1OCC" ?
A. active

Q. What outcome does the record of this test show for "C=C[Si](C)(C)O[Si](C)(C)C=C" ?
A. inactive

Q. What outcome does the record of this test show for "CC(C)C(=O)c1ccccc1" ?
A. inactive

Q. What outcome does the record of this test show for "CC(C)(CO)[C@@H](O)C(=O)NCCCO" ?
A. inactive

Q. What outcome does the record of this test show for "O=C(O)CCNC(=O)c1ccccc1" ?
A. inactive

====

protocol.summary: A CellTox Green Cytotoxicity Assay to monitor cytotoxicity in HepG2 cells - 40 hour (AID 1224879); note: % is set by controls: 0 for no effect and ±100 for the full control effect; nearly all actives have a fitted effect of over 40% in size
test.conditions: CellTox Green fluorescence; series mostly up to 76.8 µM
Records with an inconclusive call do not appear. The source made the active and inactive calls. The call rests on the fitted dose curve; in most records, active means well fitted activation curve with a large enough effect in the repeat runs; inconclusive means weak or mixed curves; inactive means flat fitted curve, though single readings scatter.
quantity: cytotoxicity increase

Nc1ccnc(=O)[nH]1 : inactive
CNC(=O)NC : inactive
O=C(O)c1c(Cl)ccc(Cl)c1Cl : inactive
CCC(CO)CO : inactive
O=C(Oc1ccccc1C(=O)O)c1ccccc1O : inactive

Q. Identify cytotoxicity increase associated with the compound "CCc1nccnc1C"
A. inactive

====

assayed.target: Progesterone receptor (Homo sapiens) (UniProt P06401)
Sequence (P06401 whole entry, looked up): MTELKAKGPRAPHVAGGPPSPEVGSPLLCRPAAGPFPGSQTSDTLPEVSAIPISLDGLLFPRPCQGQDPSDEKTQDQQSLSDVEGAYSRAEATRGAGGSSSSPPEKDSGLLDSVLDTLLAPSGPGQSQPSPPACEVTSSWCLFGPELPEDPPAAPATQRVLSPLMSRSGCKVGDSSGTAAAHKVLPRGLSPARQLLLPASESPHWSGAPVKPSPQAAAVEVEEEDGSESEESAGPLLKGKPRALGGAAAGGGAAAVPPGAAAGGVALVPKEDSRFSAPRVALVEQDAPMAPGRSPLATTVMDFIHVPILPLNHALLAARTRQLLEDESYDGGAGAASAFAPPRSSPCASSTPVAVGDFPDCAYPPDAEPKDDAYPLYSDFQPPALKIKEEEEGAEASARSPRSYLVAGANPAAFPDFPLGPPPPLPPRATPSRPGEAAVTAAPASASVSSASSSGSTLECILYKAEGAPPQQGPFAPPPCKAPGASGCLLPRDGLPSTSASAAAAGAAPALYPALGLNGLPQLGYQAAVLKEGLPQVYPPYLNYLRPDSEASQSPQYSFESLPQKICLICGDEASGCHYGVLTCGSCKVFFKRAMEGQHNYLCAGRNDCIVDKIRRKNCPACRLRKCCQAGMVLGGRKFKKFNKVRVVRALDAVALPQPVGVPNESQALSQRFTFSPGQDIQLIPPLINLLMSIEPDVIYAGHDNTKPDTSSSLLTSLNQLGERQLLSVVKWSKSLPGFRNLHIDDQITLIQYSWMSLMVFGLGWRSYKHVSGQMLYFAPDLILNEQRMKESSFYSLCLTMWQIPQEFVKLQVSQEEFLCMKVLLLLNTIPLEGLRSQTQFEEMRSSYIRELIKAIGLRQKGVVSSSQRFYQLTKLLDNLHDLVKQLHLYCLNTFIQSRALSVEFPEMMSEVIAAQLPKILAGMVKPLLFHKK
protocol.summary: qHTS assay to identify small molecule agonists of the progesterone receptor (PR) signaling pathway (AID 1346784); note: nearly all actives have a fitted effect of over 30% in size
test.conditions: PR-UAS-bla HEK293T, beta-lactamase FRET ratio, 16 h; series mostly up to 92.4 µM
Results filed as inconclusive are left out. The source made the active and inactive calls. The call rests on the fitted dose curve.
Hi there, use one of these labels in your reply, thanks! active, inactive

F[Si-2](F)(F)(F)(F)F : inactive
C=CCOCC(O)CCl (configuration not stated) : inactive
CN[C@@H]1[C@@H](O)[C@@H](O[C@@H]2[C@H](O)[C@H](O[C@H]3OC(CN)=CC[C@H]3N)[C@@H](N)C[C@H]2N)OCC1(C)O (some centres not stated) : inactive
CCCCC(CC)CNC(=O)CC(C)OC(=O)CCC(=O)O (configuration not stated) : inactive
COc1ccc(N=Nc2cc(C)c(N=Nc3ccc(S(=O)(=O)O)cc3)cc2OC)cc1 : inactive
NS(=O)(=O)c1ccc(Cl)c(S(N)(=O)=O)c1 : inactive
CN(C)CCCNCCC#N : inactive
COCCOCCOCCOC : inactive

Q. What outcome does the record of this test show for "O=C(c1ccc2c(c1)C(=O)OC2=O)c1ccc2c(c1)C(=O)OC2=O" ?
A. inactive

Q. What outcome does the record of this test show for "CCCCCCCCCCCCC" ?
A. inactive

Q. What outcome does the record of this test show for "CCN(Cc1cccc(S(=O)(=O)O)c1)c1ccccc1" ?
A. inactive

Q. What outcome does the record of this test show for "CO[Si](CCCS)(OC)OC" ?
A. inactive

Q. What outcome does the record of this test show for "O=CO" ?
A. active

Q. What outcome does the record of this test show for "O=S(=O)(O)c1cc(O)ccc1O" ?
A. inactive

Q. What outcome does the record of this test show for "Cc1nc2ccccc2c(=O)o1" ?
A. inactive

Q. What outcome does the record of this test show for "CCCCC/C=C/CC(=O)OC" ?
A. inactive

Q. What outcome does the record of this test show for CCCCCN(CCCOC)C(=O)C(CCC(=O)O)NC(=O)c1ccc(Cl)c(Cl)c1 (configuration not stated) ?
A. inactive

Q. What outcome does the record of this test show for "CCOC(=O)CCCCCCCCC(=O)OCC" ?
A. inactive

====

protocol.summary: qHTS RealTime-Glo MT Cell Viability Assay in HEK293 cells - 40 hour (AID 1224874); note: % is set by controls: 0 for no effect and ±100 for the full control effect; nearly all actives have a fitted effect of over 50% in size
test.conditions: RealTime-Glo luminescence; active compounds read low
Inconclusive results are not listed.
quantity: max response (%)
Numbers only; they are read as %.

For orientation, consider the following solved cases.
CCCOCCOCCOCCO : -22.3
Nc1cc(S(=O)(=O)O)ccc1S(=O)(=O)O : 21
O=c1cc(O)c(Cl)c[nH]1 : 4.88
CCCOC(=O)CCCCC(=O)OCCC : -4.84

Q. Identify max response associated with the molecule "CCC(C)(C)C1CCC(=O)CC1"
A. 7.65

Q. Identify max response associated with the molecule CCCCCCCCCCCCC1CO1 (stereo unspecified)
A. -5.34

====

protocol.summary: qHTS assay for small molecule agonists of the antioxidant response element (ARE) signaling pathway - cell viability counter screen (AID 743203); note: % is set by controls: 0 for no effect and ±100 for the full control effect; nearly all actives have a fitted effect of over 55% in size
test.conditions: ARE-bla HepG2 viability, CellTiter-Glo luminescence, 16 h; series mostly up to 73.3 µM
Inconclusive results are not listed. Active and inactive are the calls of the source. The call rests on the fitted dose curve.
quantity: viability change, negative = cytotoxic

For orientation, consider the following solved cases.
CC1=CC[C@H](CC=O)C1(C)C : inactive
CCCCOC(=O)C(C)OC(=O)CCC (stereo not given) : inactive
C[C@@H]1C[C@H]2[C@@H]3C[C@H](F)C4=CC(=O)C=C[C@]4(C)[C@@]3(F)[C@@H](O)C[C@]2(C)[C@@]1(O)C(=O)CO : inactive
CNC(=O)C(c1ccccc1)c1ccccc1 : inactive

Q. Identify viability change, negative = cytotoxic associated with the compound "Nc1ccc(/C=C/c2ccc(N)cc2S(=O)(=O)O)c(S(=O)(=O)O)c1"
A. -11% [at 0.756 µM] (inactive)

Q. Identify viability change, negative = cytotoxic associated with the compound C=CCOCC(O)CCl (stereo not given)
A. inactive

Q. Identify viability change, negative = cytotoxic associated with the compound "CCCCCCCCC(=O)OCC"
A. inactive

Q. Identify viability change, negative = cytotoxic associated with the compound "C/C=C(\C)C(=O)OCC/C=C\CC"
A. inactive

Q. Identify viability change, negative = cytotoxic associated with the compound CCC(=O)OCCC(C)CCC=C(C)C (stereo not given)
A. inactive

====

protocol.summary: qHTS RealTime-Glo MT Cell Viability Assay in HEK293 cells - 8 hour (AID 1224887); note: top concentration of the series differs between compounds; % is set by controls: 0 for no effect and ±100 for the full control effect; nearly all actives have a fitted effect of over 50% in size
test.conditions: RealTime-Glo luminescence; series mostly up to 76.8 µM
Inconclusive results are not listed. The source made the active and inactive calls. The call rests on the fitted dose curve; in most records, active means well fitted cell-killing curve with a large enough effect in the repeat runs; inconclusive means weak or mixed curves, or effect the other way; inactive means flat fitted curve, though single readings scatter.
quantity: activity change, negative = cytotoxicity

For orientation, consider the following solved cases.
CCCCOC(=O)C(=O)OCCCC : inactive
O=C(/C=C/c1ccccc1)NCCO : inactive
CC(C)(C)c1ccc(C=O)cc1 : inactive
CCN(Cc1cccc(S(=O)(=O)O)c1)c1ccccc1 : inactive
COc1cc(C=O)ccc1OC(=O)C(C)C : inactive
COc1ccc(NS(=O)(=O)c2ccc(N)cc2)nn1 : inactive

Q. Identify activity change, negative = cytotoxicity associated with the compound "OC(CCN1CCCCC1)(c1ccccc1)c1ccccc1"
A. inactive

Q. Identify activity change, negative = cytotoxicity associated with the compound "CCCCCCCCCCCCCC(=O)OC"
A. inactive

Q. Identify activity change, negative = cytotoxicity associated with the compound "CCCOCCOCCOCCO"
A. inactive

Q. Identify activity change, negative = cytotoxicity associated with the compound "Cc1cc(O)c2c(c1)C(=O)c1cccc(O)c1C2=O"
A. inactive
